# ΔTm listing for each entry below
system: Calf thymus DNA; assay: Binding affinity to calf thymus DNA assessed as change in melting temperature at drug/DNA ratio of 1 by spectrophotmetric method; assay type: nucleic-acid assay; conditions: Bos taurus
Parameter Measured: ΔTm (°C)

>>> value_measured("c1ccc2c(c1)CN(c1nc3ccccc3[nH]1)/C2=N/c1nc2ccccc2[nH]1")
-0.5
>>> value_measured("N#Cc1ccc2nc(/N=C3\\c4ccccc4CN3c3nc4ccc(C#N)cc4[nH]3)[nH]c2c1")
-0.5
>>> value_measured("N#Cc1ccc2nc(/N=C3\\c4ccccc4CN3c3nc4ccc(C#N)cc4s3)sc2c1")
-0.7
>>> value_measured("CC(C)NC(=N)c1ccc2nc(N3Cc4ccccc4C3=O)sc2c1.Cl")
4.4
>>> value_measured("Cl.O=C1c2ccccc2CN1c1nc2ccc(C3=NCCN3)cc2s1")
6.2
>>> value_measured("Cl.Cl.c1ccc2c(c1)CN(c1nc3ccc(C4=NCCN4)cc3s1)/C2=N/c1nc2ccc(C3=NCCN3)cc2s1")
12.2
>>> value_measured("c1ccc2c(c1)CN(c1nc3ccccc3s1)/C2=N/c1nc2ccccc2s1")
-2.2

---

test system: Calf thymus DNA; assay: Binding affinity to calf thymus DNA assessed as change in melting temperature at drug/DNA ratio of 0.25 by spectrophotmetric method; type: nucleic-acid assay; details: Bos taurus
Parameter Measured: ΔTm (°C)

>>> value_measured("CC(C)NC(=N)c1ccc2nc(/N=C3\\c4ccccc4CN3c3nc4ccc(C(=N)NC(C)C)cc4[nH]3)[nH]c2c1.Cl.Cl")
7
>>> value_measured("c1ccc2c(c1)CN(c1nc3ccccc3[nH]1)/C2=N/c1nc2ccccc2[nH]1")
-0.6
>>> value_measured("CC(C)NC(=N)c1ccc2nc(/N=C3\\c4ccccc4CN3c3nc4ccc(C(=N)NC(C)C)cc4s3)sc2c1.Cl.Cl")
12.7
>>> value_measured("Cl.Cl.c1ccc2c(c1)CN(c1nc3ccc(C4=NCCN4)cc3s1)/C2=N/c1nc2ccc(C3=NCCN3)cc2s1")
6.8
>>> value_measured("CC(C)NC(=N)c1ccc2nc(N3Cc4ccccc4C3=O)sc2c1.Cl")
1.2
>>> value_measured("Cl.O=C1c2ccccc2CN1c1nc2ccc(C3=NCCN3)cc2s1")
1.8
>>> value_measured("Cl.Cl.c1ccc2c(c1)CN(c1nc3ccc(C4=NCCN4)cc3[nH]1)/C2=N/c1nc2ccc(C3=NCCN3)cc2[nH]1")
9.3

---

system: Calf thymus DNA; assay: Binding affinity to calf thymus DNA assessed as change in melting temperature at drug/DNA ratio of 0.5 by spectrophotmetric method; format: nucleic-acid assay; details: Bos taurus
# ΔTm listing for each entry below
Parameter Measured: ΔTm (°C)

>>> value_measured("Cl.O=C1c2ccccc2CN1c1nc2ccc(C3=NCCN3)cc2s1")
3.1
>>> value_measured("CC(C)NC(=N)c1ccc2nc(N3Cc4ccccc4C3=O)sc2c1.Cl")
3.2
>>> value_measured("c1ccc2c(c1)CN(c1nc3ccccc3s1)/C2=N/c1nc2ccccc2s1")
-1.3
>>> value_measured("CC(C)NC(=N)c1ccc2nc(/N=C3\\c4ccccc4CN3c3nc4ccc(C(=N)NC(C)C)cc4[nH]3)[nH]c2c1.Cl.Cl")
12.9
>>> value_measured("c1ccc2c(c1)CN(c1nc3ccccc3[nH]1)/C2=N/c1nc2ccccc2[nH]1")
-0.7
>>> value_measured("N#Cc1ccc2nc(/N=C3\\c4ccccc4CN3c3nc4ccc(C#N)cc4[nH]3)[nH]c2c1")
-0.4
>>> value_measured("Cl.Cl.c1ccc2c(c1)CN(c1nc3ccc(C4=NCCN4)cc3[nH]1)/C2=N/c1nc2ccc(C3=NCCN3)cc2[nH]1")
18.5
>>> value_measured("CC(C)NC(=N)c1ccc2nc(/N=C3\\c4ccccc4CN3c3nc4ccc(C(=N)NC(C)C)cc4s3)sc2c1.Cl.Cl")
18
>>> value_measured("Cl.Cl.c1ccc2c(c1)CN(c1nc3ccc(C4=NCCN4)cc3s1)/C2=N/c1nc2ccc(C3=NCCN3)cc2s1")
10.5
>>> value_measured("N#Cc1ccc2nc(/N=C3\\c4ccccc4CN3c3nc4ccc(C#N)cc4s3)sc2c1")
-1.1
